System: Crude diglycosidase
methodNotes: Examination of temperature in the conversion into isoflavone aglycons by diglycosidase using soybean materials
Assay type: biochemical, Penicillium multicolor IAM7153
Parameters: concentration or dose not given beside the values
experimentalContext: 80° C., heat treatment of enzyme no, reaction time 1 h
measureName: Decomposition efficiency of glycitin family in defatted soybean

COc1cc2c(=O)c(-c3ccc(O)cc3)coc2cc1O[C@@H]1O[C@H](COC(=O)CC(=O)O)[C@@H](O)[C@H](O)[C@H]1O : 46.1%
COc1cc2c(=O)c(-c3ccc(O)cc3)coc2cc1O[C@@H]1O[C@H](CO)[C@@H](O)[C@H](O)[C@H]1O : not detected
COc1cc2c(=O)c(-c3ccc(O)cc3)coc2cc1O[C@@H]1O[C@H](COC(C)=O)[C@@H](O)[C@H](O)[C@H]1O : not detected
COc1cc2c(=O)c(-c3ccc(O)cc3)coc2cc1O : 53.9%
